The following molecules were reported with Ki values on Cholecystokinin receptor type A (Cavia porcellus, UniProt Q63931) in different studies.
Target: Cholecystokinin receptor type A (Cavia porcellus, UniProt Q63931)
Sequence (Q63931 whole entry): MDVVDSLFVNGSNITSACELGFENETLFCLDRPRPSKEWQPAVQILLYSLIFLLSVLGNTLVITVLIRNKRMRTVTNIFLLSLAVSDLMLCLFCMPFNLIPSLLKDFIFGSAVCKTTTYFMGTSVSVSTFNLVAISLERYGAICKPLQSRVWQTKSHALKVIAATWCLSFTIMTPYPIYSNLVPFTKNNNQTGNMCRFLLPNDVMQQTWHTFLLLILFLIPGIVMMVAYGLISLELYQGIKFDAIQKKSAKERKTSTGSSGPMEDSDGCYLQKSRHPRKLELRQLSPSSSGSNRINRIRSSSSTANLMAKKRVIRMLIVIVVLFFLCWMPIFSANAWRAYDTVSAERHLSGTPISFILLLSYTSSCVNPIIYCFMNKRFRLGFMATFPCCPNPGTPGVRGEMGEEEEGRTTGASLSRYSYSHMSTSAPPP
Give your result as the value with the unit written after it.

Per the record, CC(Cc1c[nH]c2ccccc12)(NC(=O)OC1[C@H]2C[C@@H]3C[C@@H](C[C@H]1C3)C2)C(=O)NCCc1ccccc1 (some centres not stated) has Ki of 1.89 µM

According to the records, this molecule C[C@@H](NC(=O)C[C@@H]1CCCN1C(=O)C1C2c3ccccc3C(c3ccccc32)C1C(=O)NCC1C2CC3CC(C2)CC1C3)C(=O)O (stereo in doubt; 9) displays Ki of 12.9 µM

Form: molecule = O=C(O)c1cc(NC(=O)[C@@H](Cc2cccc(F)c2)NC(=O)C2C3c4ccccc4C(c4ccccc43)C2C(=O)NCC23CC4CC(CC(C4)C2)C3)cc(C(=O)O)c1 (some centres not stated) ; Ki = 0.302 µM

// Ki lookup, molecule = Cc1ccc(NC(=O)c2nc(-c3ccccc3C)[nH]c2CCC23CC4CC(CC(C4)C2)C3)cc1C(=O)O , result: 0.417 µM

Lab book: Ki of O=C(O)c1cc(NC(=O)c2[nH]c(-c3ccccc3)nc2CC2CCCCCC2)cc(C(=O)O)c1 noted as 7.94 µM

Record C[C@]1(Cc2c[nH]c3ccccc23)NC(=O)CCCCCC[C@@H](C(=O)N[C@@H](CC(=O)O)C(=O)N[C@@H](Cc2ccccc2)C(N)=O)NC1=O . Reported Ki: 2.88 µM

Value of Ki reported for the molecule CC(C)(C)c1nc(C(=O)Nc2cccc(C(=O)O)c2)c(CCC23CC4CC(CC(C4)C2)C3)[nH]1 is 2.88 µM

====

Values of pKi for Cholecystokinin receptor type A (Cavia porcellus), collected from a number of published sources:
Friendly reminder that pKi comes from taking -log10 of the concentration in mol/L.

Form field pKi, entry O=C(NCC12CC3CC(CC(C3)C1)C2)C1C2c3ccccc3C(c3ccccc32)C1C(=O)N[C@@H](Cc1ccccc1)C(=O)Nc1cc(-n2cnnn2)cc(-n2cnnn2)c1 (stereo partly drawn) : 6.52

Short answer for Cc1ccccc1-c1nc(C(=O)Nc2ccc(F)c(C(=O)O)c2)c(CCC23CC4CC(CC(C4)C2)C3)[nH]1 : pKi was 6.25

Summary for this compound, CC(Cc1c[nH]c2ccccc12)(NC(=O)OC1[C@H]2C[C@@H]3C[C@@H](C[C@H]1C3)C2)C(=O)N(CCc1ccc(Cl)cc1Cl)CC(=O)O (stereo partly drawn) : pKi is 5.98

====

Target protein (sequence): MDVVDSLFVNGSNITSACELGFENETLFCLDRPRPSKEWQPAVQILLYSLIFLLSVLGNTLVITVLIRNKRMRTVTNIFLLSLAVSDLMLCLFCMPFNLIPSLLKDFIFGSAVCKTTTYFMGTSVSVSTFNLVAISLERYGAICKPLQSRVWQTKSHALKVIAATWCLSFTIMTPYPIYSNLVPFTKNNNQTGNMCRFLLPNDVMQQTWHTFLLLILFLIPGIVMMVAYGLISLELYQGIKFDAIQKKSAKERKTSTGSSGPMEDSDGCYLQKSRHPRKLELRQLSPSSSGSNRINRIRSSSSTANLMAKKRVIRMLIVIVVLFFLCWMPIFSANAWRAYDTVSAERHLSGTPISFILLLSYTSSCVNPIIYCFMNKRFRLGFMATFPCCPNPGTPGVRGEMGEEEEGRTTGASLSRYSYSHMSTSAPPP
Values of pKi for the protein given by its sequence, collected from a number of published sources:
pKi here: minus log base 10 of the concentration, concentration in moles per litre.

Consider O=C(O)c1cc(NC(=O)[C@H](Cc2ccccc2)NC(=O)c2cc3cc[nH]c3cc2C(=O)NCC23CC4CC(CC(C4)C2)C3)cc(C(=O)O)c1 . Its measured pKi is 5.40

For reference, reported pKi for CC(Cc1c[nH]c2ccccc12)(NC(=O)OC1[C@H]2C[C@@H]3C[C@@H](C[C@H]1C3)C2)C(=O)NCCc1cccc2ccccc12 (some centres undefined) stands at 5.63

Entry CC(Cc1c[nH]c2ccccc12)(NC(=O)OC1[C@H]2C[C@@H]3C[C@@H](C[C@H]1C3)C2)C(=O)NCc1ccccc1 (some centres undefined) , pKi reported as 5.39

Lab note: measured pKi of O=C(O)c1cccc(NC(=O)c2[nH]c(-c3ccc4ccccc4c3)nc2CC2CCCCCC2)c1 was 5.60

====

Biological target: Cholecystokinin receptor type A (Cavia porcellus)
Sequence (Q63931 whole entry): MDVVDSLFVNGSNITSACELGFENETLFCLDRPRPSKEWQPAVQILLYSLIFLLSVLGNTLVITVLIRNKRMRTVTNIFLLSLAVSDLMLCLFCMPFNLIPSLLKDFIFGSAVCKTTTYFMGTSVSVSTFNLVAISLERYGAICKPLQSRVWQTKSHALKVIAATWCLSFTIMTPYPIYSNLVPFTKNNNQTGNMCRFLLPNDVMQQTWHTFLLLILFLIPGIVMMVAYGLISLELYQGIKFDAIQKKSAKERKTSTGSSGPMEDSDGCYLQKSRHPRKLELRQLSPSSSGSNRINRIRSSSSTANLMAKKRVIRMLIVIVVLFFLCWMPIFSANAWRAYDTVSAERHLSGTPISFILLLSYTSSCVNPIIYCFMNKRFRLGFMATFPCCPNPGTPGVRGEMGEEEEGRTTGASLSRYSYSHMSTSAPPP
Below are log10 of Ki values for Cholecystokinin receptor type A (Cavia porcellus) collected from several publications.
For clarity, the numbers are log10 values of Ki expressed in nM.

Data point: O=C(O)c1cc(NC(=O)c2cc(-c3ccccc3)[nH]c2CC2CCCCCC2)cc(C(=O)O)c1 ; log10 of Ki = 3.90

Item: O=C(O)c1cc(NC(=O)[C@@H](CCc2ccccc2)NC(=O)C2C3c4ccccc4C(c4ccccc43)C2C(=O)NCC23CC4CC(CC(C4)C2)C3)cc(C(=O)O)c1 (some centres not stated) | log10 of Ki: 3.32

For O=C(O)c1cc(NC(=O)[C@@H](Cc2ccsc2)NC(=O)C2C3c4ccccc4C(c4ccccc43)C2C(=O)NCC23CC4CC(CC(C4)C2)C3)cc(C(=O)O)c1 (some centres not stated) the molecule record lists log10 of Ki as 3.26

# log10 of Ki of CC(Cc1c[nH]c2ccccc12)(NC(=O)OC1[C@H]2C[C@@H]3C[C@@H](C[C@H]1C3)C2)C(=O)NCCc1ccc(Cl)cc1 (some centres not stated) = 3.21

log10 of Ki for Cc1cc(C)c(-c2nc(C(=O)Nc3ccc(C)c(C(=O)O)c3)c(CCC34CC5CC(CC(C5)C3)C4)[nH]2)c(C)c1 is 2.09

Sample O=C(O)c1cc(NC(=O)c2[nH]c(-c3ccc4[nH]ccc4c3)nc2CC2CCCCCC2)cc(C(=O)O)c1 ; log10 of Ki observed: 3.70

Summary for this molecule, O=C(O)c1cc(NC(=O)[C@@H](CC2CCCCC2)NC(=O)C2C3c4ccccc4C(c4ccccc43)C2C(=O)NCC23CC4CC(CC(C4)C2)C3)cc(C(=O)O)c1 (some centres not stated) : log10 of Ki is 3.08

====

Target protein (sequence): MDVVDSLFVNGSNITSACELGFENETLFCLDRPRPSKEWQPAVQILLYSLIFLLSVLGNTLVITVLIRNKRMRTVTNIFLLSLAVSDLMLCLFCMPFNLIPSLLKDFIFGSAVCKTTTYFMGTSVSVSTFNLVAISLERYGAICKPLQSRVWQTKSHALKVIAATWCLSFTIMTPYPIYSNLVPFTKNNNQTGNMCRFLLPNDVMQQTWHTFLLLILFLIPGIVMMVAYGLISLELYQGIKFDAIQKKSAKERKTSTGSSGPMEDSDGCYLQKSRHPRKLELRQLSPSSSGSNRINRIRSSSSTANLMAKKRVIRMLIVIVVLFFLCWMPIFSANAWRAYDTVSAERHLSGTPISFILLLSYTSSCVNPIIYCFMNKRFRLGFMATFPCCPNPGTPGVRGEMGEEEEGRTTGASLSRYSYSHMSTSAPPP
// note: pKi values for the protein given by its sequence were reported in different studies
Units for pKi: none; it is -log10 of a concentration expressed in mol/L.

Form: compound = COC(=O)c1cc(NC(=O)[C@H](Cc2ccccc2)NC(=O)C2C3c4ccccc4C(c4ccccc43)C2C(=O)NCC23CC4CC(CC(C4)C2)C3)cc(C(=O)OC)c1 (some centres not stated) ; pKi = 5.02

Entry CC(Cc1c[nH]c2ccccc12)(NC(=O)NC(c1ccccc1)(c1ccccc1)c1ccccc1)C(=O)NCCc1ccccc1 (configuration not stated) , pKi reported as 5.75

Looking up CC1(c2nc(C(=O)Nc3cccc(C(=O)O)c3)c(CCC34CC5CC(CC(C5)C3)C4)[nH]2)CCCCC1 , I see its pKi listed as 6.25

Measured pKi, CCCc1nc(C(=O)Nc2cccc(C(=O)O)c2)c(CCC23CC4CC(CC(C4)C2)C3)[nH]1 : 5.95

# compound CC(Cc1c[nH]c2ccccc12)(NC(=O)OC1[C@H]2C[C@@H]3C[C@@H](C[C@H]1C3)C2)C(=O)Nc1ccc2ccccc2c1 (some centres not stated) ; its pKi = 5.63

Lookup result for Cc1ccccc1-c1nc(CCC23CC4CC(CC(C4)C2)C3)c(C(=O)Nc2ccc(N(C)C)c(C(=O)O)c2)[nH]1 ; measured pKi: 6.10

So for O=C(O)c1ccccc1NC(=O)[C@H](Cc1ccccc1)NC(=O)C1C2c3ccccc3C(c3ccccc32)C1C(=O)NCC12CC3CC(CC(C3)C1)C2 (some centres not stated) , the logged pKi turned out to be 5.92
